The measurements presented in this section are drawn from patent US20240197938A1.

Reported Log Reduction values for a set of compounds
Tested on: Listeria monocytogenes
Assay: ASTM E2315-16 Time-Kill Procedure
Format: cell-based
Details: 30 seconds; 0.20% (wt. %)
Method: Select compounds were tested for antimicrobial activity using ASTM method […]-16 (Standard Guide for Assessment of Antimicrobial Activity using a Time-Kill Procedure). Six microbes were tested: Candida albicans, Staphylococcus aureus, Staphylococcus epidermidis. […] Sample F was prepared by mixing and extensively heating a stoichiometric quantity (1:1) of sodium α-glucoheptonate with benzalkonium chloride, typified by the C12-14 alkyl chain. […]
I only need the number, thanks.

These solved cases illustrate the format of a correct answer.
CC(=O)O.CC(=O)O.NC(=N\CCCCCC/N=C(N)/N=C(\N)Nc1ccc(Cl)cc1)/N=C(\N)Nc1ccc(Cl)cc1 [Sample P, chlorhexidine diacetate] :: 1.29
N=C(NCCCCCCNC(=N)NC(=N)Nc1ccc(Cl)cc1)NC(=N)Nc1ccc(Cl)cc1.O=C(O)C(O)C(O)C(O)C(O)C(O)CO.O=C(O)C(O)C(O)C(O)C(O)C(O)CO [Sample H, chlorhexidine di-β73-glucoheptonate] :: 1.57

In: Kindly state the measured Log Reduction obtained for N=C(NCCCCCCNC(=N)NC(=N)Nc1ccc(Cl)cc1)NC(=N)Nc1ccc(Cl)cc1.O=C(O)[C@H](O)[C@@H](O)[C@H](O)[C@H](O)CO.O=C(O)[C@H](O)[C@@H](O)[C@H](O)[C@H](O)CO [Sample I, chlorhexidine digluconate] with Listeria monocytogenes.
Out: 1.99

In: For N=C(NCCCCCCNC(=N)NC(=N)Nc1ccc(Cl)cc1)NC(=N)Nc1ccc(Cl)cc1.O=C(O)C(O)C(O)C(O)C(O)C(O)CO.O=C(O)C(O)C(O)C(O)C(O)C(O)CO [Sample G, chlorhexidine di-α-glucoheptonate] then?
Out: 1.34

---

Assay: Conductivity testing (calculated CMC)
Format: physicochemical
Conditions: all data points
Reported Calculated CMC, All Points values for a set of compounds
Your answer should be a number followed by the unit of measure.

These solved cases illustrate the format of a correct answer.
N=C(NCCCCCCNC(=N)NC(=N)Nc1ccc(Cl)cc1)NC(=N)Nc1ccc(Cl)cc1.O=C(O)[C@H](O)[C@@H](O)[C@H](O)[C@H](O)CO.O=C(O)[C@H](O)[C@@H](O)[C@H](O)[C@H](O)CO [RM12C, Chlorhexidine digluconate] :: 0.0133 M
N=C(NCCCCCCNC(=N)NC(=N)Nc1ccc(Cl)cc1)NC(=N)Nc1ccc(Cl)cc1.O=C(O)C(O)C(O)C(O)C(O)C(O)CO.O=C(O)C(O)C(O)C(O)C(O)C(O)CO [RM14B, Chlorhexidine di-β73-glucoheptonate] :: 0.0132 M
N=C(NCCCCCCNC(=N)NC(=N)Nc1ccc(Cl)cc1)NC(=N)Nc1ccc(Cl)cc1.O=C(O)C(O)C(O)C(O)C(O)C(O)CO.O=C(O)C(O)C(O)C(O)C(O)C(O)CO [RM13A, Chlorhexidine di-α-glucoheptonate] :: 0.0132 M

With those in mind, consider the next compound.
In: So what does the record say about Calculated CMC, All Points for N=C(NCCCCCCNC(=N)NC(=N)Nc1ccc(Cl)cc1)NC(=N)Nc1ccc(Cl)cc1.O=C(O)C(O)C(O)C(O)C(O)C(O)CO.O=C(O)C(O)C(O)C(O)C(O)C(O)CO [RM14C, Chlorhexidine di-β73-glucoheptonate] ?
Out: 0.0131 M
